Target Or System: T1, HBsAg AY serotype (Hepatitis B virus)
T1 construct: also called HBsAg serotype AY
Experimental Protocol: SPR epitope binning; competitor (1st, saturating Ab): HBC34
Reported Metric: binding of second antibody

Examples with their reported binding of second antibody follow.
# Binder, Reported Metric, Measured
data = [
    ("NOV3842 (antibody, human IgG1, lambda, V domains shown, Full human IgG1 (lambda) expressed in CHO cells) VH: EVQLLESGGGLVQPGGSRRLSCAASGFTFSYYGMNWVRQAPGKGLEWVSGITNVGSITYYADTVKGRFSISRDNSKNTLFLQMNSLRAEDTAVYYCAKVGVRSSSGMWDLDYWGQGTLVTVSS VL: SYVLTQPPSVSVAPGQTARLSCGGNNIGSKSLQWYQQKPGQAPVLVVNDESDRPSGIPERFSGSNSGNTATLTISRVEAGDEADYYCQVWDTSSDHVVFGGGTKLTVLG", "binding of second antibody", "103 % of its binding as first antibody"),
    ("NOV3841 (antibody, human IgG1, lambda, V domains shown, Full human IgG1 (lambda) expressed in CHO cells) VH: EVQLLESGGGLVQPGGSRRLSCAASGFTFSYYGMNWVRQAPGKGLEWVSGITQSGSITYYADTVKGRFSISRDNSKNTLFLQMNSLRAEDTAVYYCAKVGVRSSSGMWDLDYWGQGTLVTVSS VL: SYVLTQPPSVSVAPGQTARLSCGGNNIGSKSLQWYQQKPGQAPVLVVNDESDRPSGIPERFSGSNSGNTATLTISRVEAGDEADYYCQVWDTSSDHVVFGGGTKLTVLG", "binding of second antibody", "107 % of its binding as first antibody"),
]

Ask | Would you kindly share the measured binding of second antibody for NOV3832 (antibody, human IgG1, lambda, V domains shown, Full human IgG1 (lambda) expressed in CHO cells) VH: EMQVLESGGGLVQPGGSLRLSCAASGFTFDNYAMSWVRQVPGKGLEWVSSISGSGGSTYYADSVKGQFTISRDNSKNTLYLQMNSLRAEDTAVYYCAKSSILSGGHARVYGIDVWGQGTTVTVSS VL: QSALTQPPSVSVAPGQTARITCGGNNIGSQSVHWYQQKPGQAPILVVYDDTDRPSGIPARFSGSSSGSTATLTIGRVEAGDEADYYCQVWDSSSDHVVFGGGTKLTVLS ?
Reply | 113 % of its binding as first antibody

Ask | Now the same for NOV3540 (antibody, human IgG1, kappa, V domains shown, Full human IgG1 (kappa) expressed in CHO cells) VH: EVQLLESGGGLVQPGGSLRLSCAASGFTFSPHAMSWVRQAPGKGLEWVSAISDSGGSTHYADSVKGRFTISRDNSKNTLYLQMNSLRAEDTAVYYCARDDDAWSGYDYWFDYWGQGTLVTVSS VL: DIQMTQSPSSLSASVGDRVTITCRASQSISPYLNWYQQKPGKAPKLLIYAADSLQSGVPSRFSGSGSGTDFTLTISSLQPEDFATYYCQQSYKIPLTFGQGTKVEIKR
Reply | 102 % of its binding as first antibody
